# System: 292921-168-R-J2-PDC complex spheroid growth;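 also: spheroids exposed to compounds for seven days after three days of growth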
# TEST_PROTOCOL: Anticancer human tumor 292921-168-R-J2-PDC patient-derived pancreatic carcinoma cell line growth inhibition [AhR]
# CONDITION_SET: second compound 1 µM; first compound 1 µM; stronger effect = lower value
Binary label based on viability, T/C with cut-off 40%: below gives Criterion met, not below gives Criterion not met.

MOLECULE | CATEGORY
CC(C)c1c(-c2ccccc2)nc2c(C#N)c[nH]n2c1=O + Cc1cncc(-c2nc(NCCc3c[nH]c4ccccc34)c3ncn(C(C)C)c3n2)c1 | Criterion not met
CC1COCCN1c1cc(C2(S(C)(=N)=O)CC2)nc(-c2ccnc3[nH]ccc23)n1 (configuration not stated) + Cc1cncc(-c2nc(NCCc3c[nH]c4ccccc34)c3ncn(C(C)C)c3n2)c1 | Criterion not met
COc1cccc2c1C(=O)c1c(O)c3c(c(O)c1C2=O)CC(O)(C(=O)CO)CC3OC1CC(N)C(O)C(C)O1 (configuration not stated) + Cc1cncc(-c2nc(NCCc3c[nH]c4ccccc34)c3ncn(C(C)C)c3n2)c1 | Criterion met
COc1cc(Nc2ncc3c(n2)-c2ccc(Cl)cc2C(c2c(F)cccc2OC)=NC3)ccc1C(=O)O + Cc1cncc(-c2nc(NCCc3c[nH]c4ccccc34)c3ncn(C(C)C)c3n2)c1 | Criterion not met
Nc1ccccc1NC(=O)c1ccc(CNC(=O)OCc2cccnc2)cc1 + Cc1ccccc1N=Nc1ccc(NC(=O)c2ccnn2C)c(C)c1 | Criterion met
Nc1ccn(C2OC(CO)C(O)C2(F)F)c(=O)n1 (configuration not stated) + Cc1ccccc1N=Nc1ccc(NC(=O)c2ccnn2C)c(C)c1 | Criterion met
COc1cc(C2c3cc4c(cc3C(OC3OC5COC(C)OC5C(O)C3O)C3COC(=O)C23)OCO4)cc(OC)c1O (configuration not stated) + CC(CO)NC(=O)c1cc(-c2ccc(Cl)cc2)nn(-c2cnn(C)c2)c1=O | Criterion met
Nc1ncn(C2CC(O)C(CO)O2)c(=O)n1 (configuration not stated) + Cc1ccccc1N=Nc1ccc(NC(=O)c2ccnn2C)c(C)c1 | Criterion not met
O=C(c1cc(Cc2n[nH]c(=O)c3ccccc23)ccc1F)N1CCN(C(=O)C2CC2)CC1 + Cc1cncc(-c2nc(NCCc3c[nH]c4ccccc34)c3ncn(C(C)C)c3n2)c1 | Criterion not met
O=C(C=Cc1cccc(S(=O)(=O)Nc2ccccc2)c1)NO + Cc1cncc(-c2nc(NCCc3c[nH]c4ccccc34)c3ncn(C(C)C)c3n2)c1 | Criterion met

Input: In plain terms, does O=C(c1cc(Cc2n[nH]c(=O)c3ccccc23)ccc1F)N1CCN(C(=O)C2CC2)CC1 + CC(CO)NC(=O)c1cc(-c2ccc(Cl)cc2)nn(-c2cnn(C)c2)c1=O come in under 40% for viability, T/C?
Output: Criterion not met

Input: In plain terms, does NS(=O)(=O)OCC1CC(n2ccc3c(NC4CCc5ccccc54)ncnc32)CC1O (configuration not stated) + CC(CO)NC(=O)c1cc(-c2ccc(Cl)cc2)nn(-c2cnn(C)c2)c1=O come in under 40% for viability, T/C?
Output: Criterion met

Reference source: PubChem BioAssay AID1918994
